Catalogue of growth values
- Test system: COLO 205 colon
- Run Description: NCI-60 one-dose screen, 48 h (100 = growth as untreated, 0 = no growth, -100 = all killed)
- Run Parameters: 10 µM unless noted
This is part of a sample that, as a whole, favours compounds with a hit. Of some 83,000 tested, about 20% had one in any assay.
Return type: number; implicit unit %.

Some entries whose results are on file:
Compound | Readout Units | Endpoint Value
O=C(Nc1cccc(Cl)c1)c1cc(Cl)ccc1O | % | 78.6
CN1CCN(c2ccc3nc(-c4cc(C(C)(C)C)c(O)c(C(C)(C)C)c4)[nH]c3c2)CC1 | % | -56.7
COc1nccnn1 | % | 112

Record `CN1CCN(c2c(F)cc(NC3=C(Cl)C(=O)c4ncccc4C3=O)cc2F)CC1` , field growth: 64.7

Record `COc1ccc(CNCCN2C(=O)c3ccc4c5c(ccc(c35)C2=O)C(=O)N(CCNCc2ccc(OC)cc2)C4=O)cc1` , field growth: -40.9

Record `O=C(Nc1ccc2cc3ccc(NC(=O)NC4CCCCC4)cc3nc2c1)NC1CCCCC1` , field growth: 100

Record `N#Cc1cc(-c2nc3ccccc3s2)c(=O)n(NS(=O)(=O)c2ccc(Cl)cc2)c1N` , field growth: 122

Record `C=C(C)[C@@H]1CC[C@]2(C(=O)O)CC[C@]3(C)[C@H](CC[C@@H]4[C@@]5(C)C[C@@H](CC#Cc6ccc(Br)cc6)C(=O)C(C)(C)[C@@H]5CC[C@]43C)[C@@H]12` , field growth: 69.1

Record `CCN(CC)CCOC(COc1cc(C)cc(C)c1)COc1cc(C)cc(C)c1` , field growth: -15.8

Record `COc1ccccc1N1CCN(C(=O)c2ccc3nc(NC(=O)c4ccc(NCCc5ccccc5)c([N+](=O)[O-])c4)sc3c2)CC1` , field growth: 100

Record `O=C(CN1CCOCC1)Nc1ccc2ncnc(Nc3ccc(Oc4cccc(C(F)(F)F)c4)c(Cl)c3)c2c1` , field growth: 76.9

Record `CCCCCCCC(=O)Nc1nc2[nH]c(CN3CCN(Cc4cccc(I)c4)CC3)c(CN3CCN(Cc4cccc(I)c4)CC3)c2c(=O)[nH]1` , field growth: -81.2

Record `Cc1cc2cc3cc(C)c(N)cc3[n+](C)c2cc1N` , field growth: -46.5

Record `C1=C2CNCC3=Cc4ccc5ccccc5c4OC23Oc2c1ccc1ccccc21` , field growth: 50.8

Record `O=[N+]([O-])c1cccc(-c2nc(-c3ccc(Cl)cc3Cl)cn2-c2ccccc2)c1` , field growth: -36.5

Record `O=C(O)CNC(=O)CN1C(=O)c2ccccc2C1=O` , field growth: 104

Record `COc1nc(N)nc(-n2c(-c3ccc(C)cc3)nc3ccccc32)c1NCc1ccc(C)cc1` , field growth: 108

Record CCOC(=O)C1CC(=O)c2cc(OC)c(OC)cc2C1 (stereo unspecified) , field growth: 127

Record `O=CNc1cc(Cl)cc(Cl)c1` , field growth: 107

###

- Tested on: MDA-MB-435 melanoma
- Run Description: NCI-60 one-dose screen, 48 h
- Run Parameters: 10 µM unless noted
Compounds without any hit were thinned out: in the full panel of roughly 83,000, 20% have a hit. The source made the active and inactive calls. The calls were made as follows: active = growth percent below 10; inactive = the rest.
Can you answer with just one of these options? true = active, false = inactive

Record excerpt, results attached:
Compound | Label
Cc1ccc(C(=O)Nc2ccccc2C(=O)N/N=C(\c2ccccc2)c2ccccn2)cc1 | false
COc1cc2oc(-c3cccc(C(=O)Nc4ccc(Cl)cc4)c3)cc(=O)c2c(OC)c1OC | false

Inquiry: In this assay, the call recorded for `O=C(NCCc1ccccn1)OCc1nc2nc(Cl)nc(N3CCOCC3)c2[nH]1` was what?
Reply text: false

Inquiry: In this assay, the call recorded for `COc1ccccc1Nc1cc(O)c2c(=O)cc(-c3ccccc3)oc2c1` was what?
Reply text: true

Inquiry: In this assay, the call recorded for `COc1cc(/C=C2\C(=O)N(Cc3ccc(Cl)cc3)c3ccccc32)cc(OC)c1OC` was what?
Reply text: false

Inquiry: In this assay, the call recorded for `CCCCCCCCCCCCCCCC(=O)OC[C@@]1(O)C[C@@]23CC[C@@H]4C(C)(C)CCC[C@@]4(C)[C@@H]2CC[C@H]1C3` was what?
Reply text: false

Inquiry: In this assay, the call recorded for `N#Cc1c(NC(=O)c2cccc(Br)c2)sc2c1CCCC2` was what?
Reply text: false

Inquiry: In this assay, the call recorded for COc1ccc(C2CC(c3cccc(Nc4ccncc4)c3)=NN2c2ccc(Cl)cc2)cc1 (centres undefined) was what?
Reply text: true

Inquiry: In this assay, the call recorded for `COc1cc(NCCN(CC(C)C)C2CCCC2)c2ncccc2c1` was what?
Reply text: false

Inquiry: In this assay, the call recorded for `COc1ccc(/C=C/C(=O)c2ccc(OC)c(OC)c2)cc1O` was what?
Reply text: false

Inquiry: In this assay, the call recorded for `COc1cc(NCCCN(CC(C)C)C2CCCC2)c2ncccc2c1` was what?
Reply text: false

###

- System: SF-539 CNS
- Run Description: NCI-60 one-dose screen, 48 h
- Run Parameters: 10 µM unless noted
The panel holds about 83,000 compounds, 20% with a hit somewhere; the sample as a whole holds those more often. Activity calls are given as the source filed them. How the source made its calls: active means growth percent below 10; inactive means the rest.
Can you answer with just one of these options? active, inactive

Cpd Smiles | Assayed Target | Label
O=c1nc2n(nc1/C=C/c1ccco1)CC(c1ccc(Cl)cc1)=NN2 | SF-539 CNS | inactive
C#CC(=O)Nc1cccc(Nc2nc3c(c(NCc4ccccc4)n2)CCCC3)c1 | SF-539 CNS | active
C[C@]12CCc3nc(Nc4cccc(O)c4)sc3C1=CC[C@@H]1[C@@H]2CC[C@]2(C)/C(=N\NC(N)=S)CC[C@@H]12 | SF-539 CNS | active

Inquiry: In this assay, the call recorded for `Fc1ccc2nc3c(cc2c1)CSc1nnc(-c2ccc[nH]c2=S)n1N3` was what?
Reply text: inactive

Inquiry: In this assay, the call recorded for `[O-][n+]1ccccc1CCN(O)CCc1cccc[n+]1[O-]` was what?
Reply text: inactive

Inquiry: In this assay, the call recorded for `NC(=S)N/N=C/c1ccc(OC(=O)COc2cc(Cl)c(Cl)cc2Cl)cn1` was what?
Reply text: inactive

###

- Tested on: OVCAR-5 ovarian
- Run Description: NCI-60 one-dose screen, 48 h (100 = growth as untreated, 0 = no growth, -100 = all killed)
- Run Parameters: 10 µM unless noted
- Procedure: Growth inhibition of the OVCAR-5 human tumor cell line is measured as a screen for anti-cancer activity. Cells are grown in 96 well plates and exposed to the test compound for 48 hours. Compounds are tested at a single concentration, which is 10^-5 M for most compounds. The reported endpoint is percent growth (GI% or GIPRCNT), where numbers from 0 - 100% represent growth inhibition, and numbers from -100% - 0 represent cell death. For example, a value of 40 represents 60% growth inhibition. […]
About 83,000 compounds went through this panel and 20% of them were active in at least one assay; those are over-represented in the sample as a whole.
Readout Name: growth (%)
Return type: number; implicit unit %.

Compound | Endpoint Value
COc1cccc2cc(-c3cc4ccccc4[nH]3)/c(=N/C(=S)Nc3ccc(C)cc3)oc12 | 89.4

We next turn to a different compound, shown below.
The measured growth that O=C1CCCCCCCCC(O)C(O)CCCC(c2cccs2)O1 (stereo unspecified) showed for OVCAR-5 ovarian is 95.3

###

- Tested on: UACC-257 melanoma
- Run Description: NCI-60 one-dose screen, 48 h (100 = growth as untreated, 0 = no growth, -100 = all killed)
- Run Parameters: 10 µM unless noted
About 83,000 compounds went through this panel and 20% of them were active in at least one assay; those are over-represented in the sample as a whole.
Catalogue of growth values
Return type: number; implicit unit %.

Some entries whose results are on file:
Compound | Readout Units | growth
COc1ccc2c(/C=C3/C(=O)NC(=S)NC3C)cc(=O)oc2c1 (centres undefined) | % | 83.5
COc1ccc(C(=O)c2cc3c(N)c(C(=O)Nc4cccc5ccccc45)sc3nc2C)cc1 | % | 55.8
O=C1NC(=O)C(=Cc2cn(Cc3ccccn3)c3ccccc23)C(=O)N1 | % | 103

We next turn to a different compound, shown below.
Record `O=C(O)c1cn(C2CC2)c2cc(N3CCN(C(=O)C[n+]4cccc5ccccc54)CC3)c(F)cc2c1=O` , field growth: 82.3

###

- System: OVCAR-8 ovarian
- Run Description: NCI-60 one-dose screen, 48 h
- Run Parameters: 10 µM unless noted
- Experimental: Growth inhibition of the OVCAR-8 human tumor cell line is measured as a screen for anti-cancer activity. Cells are grown in 96 well plates and exposed to the test compound for 48 hours. Compounds are tested at a single concentration, which is 10^-5 M for most compounds. The reported endpoint is percent growth (GI% or GIPRCNT), where numbers from 0 - 100% represent growth inhibition, and numbers from -100% - 0 represent cell death. For example, a value of 40 represents 60% growth inhibition. […]
Compounds without any hit were thinned out: in the full panel of roughly 83,000, 20% have a hit. Active and inactive are the calls of the source. How the source made its calls: active means growth percent below 10; inactive means the rest.
Can you answer with just one of these options? yes for active, no for inactive

Record excerpt, results attached:
Compound | Label
FCc1nc2nc(Cl)c(Cl)nc2[nH]1 | no
CS(=O)(=O)Nc1cc(-c2ccc3ncnc(Nc4ccc5[nH]ncc5c4)c3c2)cnc1Cl | no
O=C(N/N=C/c1ccncc1)c1ccccc1Nc1cccc(C(F)(F)F)c1 | no

Inquiry: In this assay, the call recorded for `S=c1[nH]cccc1-c1nnc2n1Nc1nc3ccccc3cc1CS2` was what?
Reply text: no

Inquiry: In this assay, the call recorded for `CN1CCN(CC#CCNC(=O)[C@]23CCC(C)(C)C[C@H]2C2=CC[C@@H]4[C@@]5(C)Cc6c([nH]c7ccccc67)C(C)(C)[C@@H]5CC[C@@]4(C)[C@]2(C)CC3)CC1` was what?
Reply text: no

Inquiry: In this assay, the call recorded for `COc1ccc(-c2nc(N/N=C/c3c[nH]c4ccccc34)nc(N3CCOCC3)c2C#N)cc1` was what?
Reply text: no

Inquiry: In this assay, the call recorded for `CCOC(=O)N1CCN(CCCCl)CC1` was what?
Reply text: no

Inquiry: In this assay, the call recorded for `O=C1/C(=C/c2ccc(O)cc2)COc2ccc(-c3ccccc3)cc21` was what?
Reply text: no

Inquiry: In this assay, the call recorded for Clc1ccc(C2CC(c3cccc(Nc4ccncc4)c3)=NN2c2cc(Cl)cc(Cl)c2)cc1 (stereo unspecified) was what?
Reply text: yes

Inquiry: In this assay, the call recorded for N#CSCC1CC(O)(c2ccccc2)C(c2ccccc2)C(c2ccc(F)cc2)O1 (stereo unspecified) was what?
Reply text: no

Inquiry: In this assay, the call recorded for `COc1ccc(/C=C/C(=O)c2ccc(OC)c(OC)c2)cc1O` was what?
Reply text: no
